# Test system: Fer (mouse);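 also: 11-residue human phosphosite peptides and single-mutation variants displayed on the E. coli surface, counted by deep sequencing, each peptide's frequency after selection divided by its frequency in the unselected input library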;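 also: frequency after pTyr selection over input frequency; kinase dosed for 20-30% of maximal phosphorylation in three min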
# PROCEDURE DETAILS: phosphorylation enrichment, bacterial display (enrichment ratio); higher = better substrate or ligand; peptides without Tyr show the background
REPORTED PROPERTY: phosphorylation enrichment

[
  {
    "CHAIN": "IRSGIYFKPES [L2HGDH_Y102_H98R_YF]",
    "MEASURED RESULT": 0.467
  },
  {
    "CHAIN": "QVMDGYPIPIG [MMP14_Y353_M355I]",
    "MEASURED RESULT": 0.56
  },
  {
    "CHAIN": "HELFVYKSDEN [DOCK3_Y548_C550S_YF]",
    "MEASURED RESULT": 0.927
  },
  {
    "CHAIN": "VQNIVYHTASI [CYP39A1_Y102_R103H]",
    "MEASURED RESULT": 0.386
  },
  {
    "CHAIN": "RRIHSYRSHLW [VHL_Y112_G114S]",
    "MEASURED RESULT": 0.507
  },
  {
    "CHAIN": "SDGHEYIYVDP [PDGFRB_Y579]",
    "MEASURED RESULT": 1.66
  },
  {
    "CHAIN": "RAIGFYSATSK [FAM120A_Y328_YF]",
    "MEASURED RESULT": 0.911
  },
  {
    "CHAIN": "LNLKEYNLVGG [GNAQ_Y356]",
    "MEASURED RESULT": 0.685
  },
  {
    "CHAIN": "PSSRDYKHNIK [PIGN_Y227]",
    "MEASURED RESULT": 0.569
  },
  {
    "CHAIN": "LGLTVYADCLA [ABCA4_Y2063]",
    "MEASURED RESULT": 0.584
  },
  {
    "CHAIN": "RLNWIYFKDQT [RS1_Y165_YF]",
    "MEASURED RESULT": 0.774
  },
  {
    "CHAIN": "IEEGTYGVVFR [CDK11B_Y449_YF]",
    "MEASURED RESULT": 6.28
  },
  {
    "CHAIN": "PKGTGYIKTES [STAT1_Y701_L706S]",
    "MEASURED RESULT": 0.392
  },
  {
    "CHAIN": "KERNQYGGVMV [MMP21_Y347_E349G]",
    "MEASURED RESULT": 0.474
  }
]
